- TESTED TARGET: human GLP-1 receptor (human) (UniProt P43220)
- Sequence (P43220 24-463): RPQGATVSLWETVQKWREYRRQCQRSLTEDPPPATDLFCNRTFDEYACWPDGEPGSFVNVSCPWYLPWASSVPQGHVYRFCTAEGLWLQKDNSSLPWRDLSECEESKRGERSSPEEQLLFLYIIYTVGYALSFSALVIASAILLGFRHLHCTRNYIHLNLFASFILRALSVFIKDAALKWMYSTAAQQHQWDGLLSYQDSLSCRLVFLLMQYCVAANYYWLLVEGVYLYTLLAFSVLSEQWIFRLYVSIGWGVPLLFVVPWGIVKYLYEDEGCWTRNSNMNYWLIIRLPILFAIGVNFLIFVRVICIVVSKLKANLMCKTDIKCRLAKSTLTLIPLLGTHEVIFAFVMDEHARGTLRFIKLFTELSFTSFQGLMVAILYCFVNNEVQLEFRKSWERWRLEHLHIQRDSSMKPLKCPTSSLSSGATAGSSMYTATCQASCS
- MEASUREMENT DESCRIPTION: cell-based or functional assay
Give measured cAMP EC50 for each item. Keep answers brief.
Answer with the figure and its unit, nothing else.

Consider the following illustrative entries.
- BINDER: "IP352 (Fc fusion) YSEGTFTSDYSKLLERQAIDEFIAMLLKGEGGGGGSGGGGSGGGGSGGGGSGGGGSGGGGSA"
  cAMP EC50: "0.13 nM"
- BINDER: "IP387 (Fc fusion) YSEGTFISDYSIAMDKIHQQDFVNWLLAQKGGGGGSGGGGSGGGGSGGGGSGGGGSGGGGSGGGGSGGGGSACPPC"
  cAMP EC50: "370 nM"

Please examine the following record next.
cAMP EC50 measured on IP150 (Fc fusion) YSEGTFTSDVSSYLEGQAAKEFIAWLVAGGAPPGGSGSTASSGSGSATGGGGAATHTCPPCPAPEF = 0.033 nM
